assay: in vitro; conditions: human
MEASUREMENT_TYPE: cytotoxicity at 0.1 µM (%)
Numbers only; they are read as %.

q: Answer with the recorded cytotoxicity at 0.1 µM for the compound listed here: COC(=O)/C=C/C(=O)NNC(=O)CCc1ccccc1C(=O)N[C@H](C)c1cccc2ccccc12
a: 3.4

* * *

Record form. Attribute: remaining activity at 0.2 µM. Fill in for each entry.
target: PLpro from SARS-CoV-2 (Severe acute respiratory syndrome coronavirus 2, UniProt P0DTD1); assay: biochemical; assay type: biochemical; conditions: 0.5 h, inhibitor 0.20 uM
Express it in %; write the number only.

q: Give remaining activity at 0.2 µM only, for C[C@@H](NC(=O)c1ccccc1CCC(=O)NNC(=O)CC#N)c1cccc2ccccc12 , using PLpro from SARS-CoV-2 (Severe acute respiratory syndrome coronavirus 2, UniProt P0DTD1) data.
a: 89.9

q: # return remaining activity at 0.2 µM of COC(=O)/C=C/C(=O)NNC(=O)CCc1ccc(NC(C)=O)cc1C(=O)N[C@H](C)c1cccc2ccccc12 (system: PLpro from SARS-CoV-2 (Severe acute respiratory syndrome coronavirus 2, UniProt P0DTD1))
a: 57.8

q: Give the observed remaining activity at 0.2 µM of C[C@@H](NC(=O)c1ccccc1CCC(=O)NNC(=O)C(C#N)=CC1CC1)c1cccc2ccccc12 for PLpro from SARS-CoV-2 (Severe acute respiratory syndrome coronavirus 2, UniProt P0DTD1).
a: 107

q: Fill in remaining activity at 0.2 µM for Cc1ccccc1C(=O)N[C@H](C)c1cccc2ccccc12 tested with PLpro from SARS-CoV-2 (Severe acute respiratory syndrome coronavirus 2, UniProt P0DTD1).
a: 103

q: // fetch remaining activity at 0.2 µM; item: COC(=O)/C=C/C(=O)NNC(=O)CCc1ccccc1C(=O)N[C@H](C)c1cccc2ccccc12 ; system: PLpro from SARS-CoV-2 (Severe acute respiratory syndrome coronavirus 2, UniProt P0DTD1)
a: 17.4

q: State, for PLpro from SARS-CoV-2 (Severe acute respiratory syndrome coronavirus 2, UniProt P0DTD1), measured remaining activity at 0.2 µM of the compound listed here: CC(=O)Nc1ccc(C)c(C(=O)N[C@H](C)c2cccc3ccccc23)c1
a: 110

q: Find remaining activity at 0.2 µM for C#CC(=O)NNC(=O)CCc1ccccc1C(=O)N[C@H](C)c1cccc2ccccc12 on PLpro from SARS-CoV-2 (Severe acute respiratory syndrome coronavirus 2, UniProt P0DTD1) and write it down.
a: 14.8

* * *

target: PLpro from SARS-CoV-2 (Severe acute respiratory syndrome coronavirus 2, UniProt P0DTD1); experiment: biochemical; format: biochemical; settings: 0.5 h, inhibitor 0.06 uM
Decision: remaining activity at 0.06 µM beneath 90% gives t; remaining activity at 0.06 µM meeting or exceeding 90% gives f.

q: Is remaining activity at 0.06 µM of CC(=O)Nc1ccc(CCC(=O)NNC(=O)CCl)c(C(=O)N[C@H](C)c2cccc3ccccc23)c1 [Compound 10] strictly below 90%?
a: f

q: Quick check: does C#CC(=O)NNC(=O)CCc1ccccc1C(=O)N[C@H](C)c1cccc2ccccc12 [Compound 12] have remaining activity at 0.06 µM under 90%?
a: t

q: Does this molecule meet the criterion remaining activity at 0.06 µM < 90%? Cc1ccccc1C(=O)N[C@H](C)c1cccc2ccccc12 [Compound 14]
a: f

q: Could you please tell me whether remaining activity at 0.06 µM recorded for C[C@@H](NC(=O)c1ccccc1CCC(=O)NNC(=O)C(C#N)=CC1CC1)c1cccc2ccccc12 [Compound 13] is less than 90%?
a: f

q: Does this molecule meet the criterion remaining activity at 0.06 µM < 90%? COC(=O)/C=C/C(=O)NNC(=O)CCc1ccccc1C(=O)N[C@H](C)c1cccc2ccccc12 [Compound 7]
a: t

q: Hello, I'm reviewing records and need to know if remaining activity at 0.06 µM of CC(=O)Nc1ccc(C)c(C(=O)N[C@H](C)c2cccc3ccccc23)c1 [Compound 15] is below 90%. Could you check?
a: f
